- Tested on: MS2 coat protein
- experimental_protocol: apparent KD of MS2 coat protein; designed switch direction (-1 OFF switch, 1 ON switch): 1; higher = weaker reporter binding
- protocol_conditions: input ligand: microRNA oligo, concentration not stated
In this section, each of the sequences is paired with its reported apparent KD of MS2 coat protein.
Hi! Could you send only the number? It should be in nM, unit omitted.

Response field apparent KD of MS2 coat protein (MS2 coat protein) for item ACUCUCACAGUAGGAUAUGUAGGAUAUGCCUACAUGAGGAUCACCCAUGUAAACAUGGCAGAAGGAUAGAAGGACUUACAUUGG [pwkr ssNG2 2FMN + 1F5.1] (Eterna round: R96, puzzle: Same State NG 2) : 577

Response field apparent KD of MS2 coat protein (MS2 coat protein) for item UGAAUAAUGAUAGGAUAUACAUGAGGAAUCCUCGUAGAAGGAUCAUGACAUGAGGAUCACCCAUGUAGCGCUCGAAAGAGCGCA [Mat - Same State NG 1 - JL mod - D52] (Eterna round: R96, puzzle: Same State NG 1) : 54.9

Response field apparent KD of MS2 coat protein (MS2 coat protein) for item CACGCCUCGGUAGGAUAUGAGGUGCCAUAGGCAACAGCCUAUGGACAUGAGGAUCACCCAUGUCCUCAGAAGGGCCAGGCGUGA [Rexeorar] (Eterna round: R96, puzzle: Same State NG 2) : 66.3

Response field apparent KD of MS2 coat protein (MS2 coat protein) for item GGUCGGACCUACAUGAGGAUCACCCAUGUUCCGGAAACGGCAUAGGAUAUCUGUCCGAAAAGGUCAGAGAAGGGUGAACCGACC [Fiskers NG3ss - 74] (Eterna round: R96, puzzle: Same State NG 3) : 160

Response field apparent KD of MS2 coat protein (MS2 coat protein) for item GAGUGGAGGAGAGGAUAUACAAUGAUAAUCACAGUAGAAGGUUCUAACAUGAGGAUCACCCAUGUAGGACUAUUCCUGAGAGAA [Parity 49 - Jieux - Same State NG 1] (Eterna round: R96, puzzle: Same State NG 1) : 9.32

Response field apparent KD of MS2 coat protein (MS2 coat protein) for item GCUCGGACGAUGACCCACAUGAGGAUCACCCAUGUGCUUGGGCAGGAUAUCUAGAUUAAGGAUGUAGAGAAGGGUCGACCGAGC [SameState NG3 #29] (Eterna round: R96, puzzle: Same State NG 3) : 90.3

Response field apparent KD of MS2 coat protein (MS2 coat protein) for item AAACGACACACAGGAUAUCCGCCAUGCAGGCUCGGAGAAGGGUGUGAAACAUGAGGAUCACCCAUGUAGUCAAAAUAAUAAAGA [Arardixequ] (Eterna round: R96, puzzle: Same State NG 1) : 62.9

Response field apparent KD of MS2 coat protein (MS2 coat protein) for item GAGUGGCAGUUAGGAUAUAUAGUGAUAAUGAUAAUAGAAGGAACAGACAUGAGGAUCACCCAUGUAGGACUAAUCCAGAGAGAG [Parity 34 - Jieux - Same State NG 1] (Eterna round: R96, puzzle: Same State NG 1) : 21.7

Response field apparent KD of MS2 coat protein (MS2 coat protein) for item ACGCCCUCAGUAGGAUAUGGGAAAGGAAGUGUACCAGAAGGACUGGUUGAACAUGAGGAUCACCCAUGUUCAACGACAGGGCGA [PowerStrip SSNG 1.25] (Eterna round: R96, puzzle: Same State NG 1) : 14

----------
- Test system: MS2 coat protein
- experimental_protocol: apparent KD of MS2 coat protein; higher = weaker reporter binding
- protocol_conditions: Eterna round: R107; input ligand: arginine 13.2 mM
Quick rule: apparent KD of MS2 coat protein of at least 0.05 µM means criterion met, below that means criterion not met.

Here are 2 sequences together with their reported answers.
{"polymer_sequence": "GUUGGAUUCUCGGCCGCCACUGAGAGAGUCAUGUGAACAUGAGGAUCACCCAUGUAAUAUAUAUACAGGACCGGGAGGGUUGUAA [4.K]", "tested_on": "MS2 coat protein", "qualitative_label": "criterion not met"}
{"polymer_sequence": "AAUUAUCAGUCGGCCGCCACUGACACAUGAGGAUCACCCAUGUAACUUGGGUUAAAUUUAAUAAACAGGACCGGGACAAAGGCUA [JR_ExcTryptoB_Sub010]", "tested_on": "MS2 coat protein", "qualitative_label": "criterion met"}

# bool: apparent KD of MS2 coat protein of CGUCGAAACUGAAGGAGCGAGAUGACAACAUUGGGUCUAACAUGAGGAUCACCCAUGUAAUCUCAGGUAGGUCGCGGUGUCAACA [Exclusion Arginine B GF18] >= 0.05 µM
criterion met

# bool: apparent KD of MS2 coat protein of CAUCCUAGUACAUGAGGAUCACCCAUGUAUCGAGGACCGGUACGGCCGCCACUCGAAUGGCGGAUCGUUAAUCCUCUAGGAUGGA [Tryp A Ex 4a] >= 0.05 µM
criterion not met

# bool: apparent KD of MS2 coat protein of ACGCUGAUUGAUUACAAUCAGCGAAAAGAUACCAGUGGGUAAUCCCACCCUUGGCAGCUUAAACAAGAGGAUCACCCUUGUGGUA [TheoAS 16 #MS2Right #BothOrNeither #AlternativeMS2] >= 0.05 µM
criterion met

----------
- Test system: MS2 coat protein
- experimental_protocol: apparent KD of MS2 coat protein; designed switch direction (-1 OFF switch, 1 ON switch): 1; higher = weaker reporter binding
- protocol_conditions: Eterna round: R95; input ligand: microRNA oligo, concentration not stated
Quick rule: apparent KD of MS2 coat protein of at least 400 nM means 1, below that means -1.

Here are 4 sequences together with their reported answers.
{"polymer_sequence": "AUAAGGCAAGCUUUUUUCUCGUAGUAUAAACAUGAGGAUCACCCAUGUGCCUACCCUGGAUCUUUGGAUCGCAGAAA [Ravebiat] (puzzle: Sensor for hsa-mir-208a)", "tested_on": "MS2 coat protein", "qualitative_label": -1}
{"polymer_sequence": "CGUAGGUAGCUGGAGGAUAUUCGAGUGGUAACAUGAGGAUCACCCAUGUGGAUAGAGGAACAUGAGGAGAAGGCUAGCUGCCUGC [JL-ss2-3.20 JL mod] (puzzle: Same State 2)", "tested_on": "MS2 coat protein", "qualitative_label": -1}
{"polymer_sequence": "AACAAUCUAUCUGAGGAUAUCAUGAAAUAAACAUGAGGAUCACCCAUGUGCAGGAAAACUGCAUAUGAGAAGGCAUAUAGAUUGA [salish99_ss2_r3_052] (puzzle: Same State 2)", "tested_on": "MS2 coat protein", "qualitative_label": 1}
{"polymer_sequence": "AUAAAACAUGAGGAUCACCCAUGUCAACAAAGUCGAGGAUAUGGGCAAAUAAAAUAAGAACCAGAAGGCGAAUAUU [salish99_ss1_r3_037] (puzzle: Same State 1)", "tested_on": "MS2 coat protein", "qualitative_label": -1}

Now turn to the next sequence.
# bool: apparent KD of MS2 coat protein of AAUAUACAUGAGGAUCACCCAUGUUAGUAAAUGACAGGAUAUGCAAUAAAUAAAUAAUAAGCAGAAGGGUCUAAUA [JMF's solution 1] (puzzle: Same State 1) >= 400 nM
-1

----------
- Tested on: MS2 coat protein
- experimental_protocol: apparent KD of MS2 coat protein; designed switch direction (-1 OFF switch, 1 ON switch): 1; higher = weaker reporter binding
- protocol_conditions: input ligand: FMN 200 uM
Quick rule: apparent KD of MS2 coat protein of at least 70 nM means true (1), below that means false (0).

# bool: apparent KD of MS2 coat protein of AUAAUUAAUGCAGGAUAUGAUUAACAUGAGGAUCACCCAUGUGGUGUUGUGAGUAAGGAGAGUGAUCAGAAGGGCAUUUUUUUU [JMF's solution 33] (Eterna round: R96, puzzle: Same State NG 2) >= 70 nM
true (1)

# bool: apparent KD of MS2 coat protein of UAAAAUAACACAGGAUAUGCAGACAACUCGUCGGCAGAAGGGUGAGACAUGAGGAUCACCCAUGUAAAAUAAGGGCGCCGCCCG [Diatera] (Eterna round: R96, puzzle: Same State NG 1) >= 70 nM
true (1)

# bool: apparent KD of MS2 coat protein of GGCUAGGAUAUCUGCAGGAUCACCGCGGAGAAGGAGCUAAGCUAGGAUAUCCGCAGGAUCACCGCGGAGAAGGAGCAUCAUCUC [pwkr ssNG3 DX 2xF5 +2xFMN.16] (Eterna round: R96, puzzle: Same State NG 3) >= 70 nM
true (1)

# bool: apparent KD of MS2 coat protein of GAGCCAGUCCGAGGAUAUUCAUAUUAAAUACAUGAGGAUCACCCAUGUAGGCUCAGAGAGCCUUGGGAGAAGGCGGACUGGCUC [Xeonanisa>>1] (Eterna round: R96, puzzle: Same State NG 2) >= 70 nM
false (0)

# bool: apparent KD of MS2 coat protein of GGAGCCGGCCUAGGAUAUUUCAUUAUUAAACAUGAGGAUCACCCAUGUAGGCCAGAAGGCCUUGGGAAGAAGGAGGUCGGCUCC [Loop Effect - U24,U26,U28] (Eterna round: R96, puzzle: Same State NG 2) >= 70 nM
false (0)

# bool: apparent KD of MS2 coat protein of GUGGUCAGACAUGAGGAUCACCCAUGUGGAAUAAAUAACGGUGAGGAUAUGCAAUAUAGGAUAUAGUAGAAGGCAUGAUUGGUG (Eterna round: R96, puzzle: Same State NG 3) >= 70 nM
true (1)
